- assayed_target: T1, HLA-A*01:01 (human, biotinylated heavy chain)
- T1 construct: Conditional HLA class I complex (heavy chain + B2M) first held by a UV-labile peptide; the tested peptide is exchanged in after UV cleavage
- protocol_notes: UV peptide exchange; HLA class I ELISA
metric: Average % (%)
Just the number please, in %, no unit attached.

input: Identify measured Average % associated with IAMDSAITL [Peptide 2, 9-mer IAMDSAITL derived from FUS1 (SEQ ID NO: 1001)]
output: 6.9

input: Identify measured Average % associated with LYHREKQLI [Peptide 5, 9-mer LYHREKQLI derived from P22 (SEQ ID NO: 1003)]
output: 6

input: Identify measured Average % associated with HREKQLIAM [Peptide 7, 9-mer HREKQLIAM derived from P22 (SEQ ID NO: 1003)]
output: 5.4

input: Identify measured Average % associated with AMDSAITLW [Peptide 1, 9-mer AMDSAITLW derived from FUS1 (SEQ ID NO: 1001)]
output: 4.6
